TEST_TARGET: DYRK1A (Homo sapiens (Human))
TEST_DESCRIPTION: DYRK1A activity Tau assay: pSer396 Tau in SH-SY5Y cells by ELISA / western blot
APPLIED_CONDITIONS: overnight (16-18 h) exposure
pEC50: −log10 of the molar value.
Use TRUE when the recorded pEC50 is no lower than 7; use FALSE when it is lower.

Here are 5 compounds together with their reported answers.
CHEMICAL_STRUCTURE | TEST_TARGET | LABEL_VALUE
O=C(Nc1ccc(C(F)(F)F)cn1)c1n[nH]c2ccc(-c3cccnc3)cc12 | DYRK1A (Homo sapiens (Human)) | FALSE
NC1CN(c2cncc(-c3ccc4[nH]nc(C(=O)Nc5cncc(-c6cccc(F)c6)c5)c4c3)n2)C1 | DYRK1A (Homo sapiens (Human)) | TRUE
O=C(NC1CCN(Cc2ccccc2)CC1)c1n[nH]c2ccc(-c3cccnc3)cc12 | DYRK1A (Homo sapiens (Human)) | TRUE
CC(C)(F)CN1CCC(NC(=O)c2n[nH]c3ccc(-c4cccnc4)cc23)CC1 | DYRK1A (Homo sapiens (Human)) | TRUE
Cc1cncc(NC(=O)c2n[nH]c3ccc(-c4cncc(CN5CCCCC5)c4)cc23)c1 | DYRK1A (Homo sapiens (Human)) | TRUE

Q: API: above_or_equal(metric=pEC50, cutoff=7) for item `CN1CCC(NC(=O)c2n[nH]c3ccc(-c4cc(CN5CCCCC5)cc(F)c4F)cc23)CC1`
A: TRUE

Q: I'd appreciate it if you could say whether `CN1CCC(NC(=O)c2n[nH]c3ccc(-c4cc(F)cc(F)c4)cc23)CC1` has pEC50 at least equal to 7.
A: FALSE

Q: Textbook exercise: given the entry `O=C(NC1CC1)c1n[nH]c2ccc(-c3cncc(CN4CCCCC4)c3)cc12` , state whether its pEC50 is greater than or equal to 7.
A: TRUE

----------
This section presents compounds with their documented EC50 values.
TEST_TARGET: DYRK1A (Homo sapiens (Human))
TEST_DESCRIPTION: DYRK1A activity Tau assay: pSer396 Tau in SH-SY5Y cells by ELISA / western blot
APPLIED_CONDITIONS: overnight (16-18 h) exposure
Output spec: scalar in µM, unitless text.

Q: Can you look up the measured EC50 of `CC(C)NC(=O)c1n[nH]c2ccc(-c3cccnc3)cc12` for me?
A: 0.055

----------
// values below are reported pEC50
TEST_TARGET: UniProtKB Q13627
TEST_DESCRIPTION: DYRK1A activity Tau assay: pSer396 Tau in SH-SY5Y cells by ELISA / western blot
APPLIED_CONDITIONS: overnight (16-18 h) exposure
Note: pEC50 values are expressed as the negative base-10 logarithm of concentration in M.

MOLECULE | pEC50
CN(C)CCCNC(=O)c1n[nH]c2ccc(-c3cccc(F)c3F)cc12 [Compound 1260] | 6.87
CC(C)N1CCC(NC(=O)c2n[nH]c3ccc(-c4cncc(Cl)c4)cc23)CC1 [Compound 1305] | 6.91

Q: Data request, read-out pEC50, for O=C(NC1CCN(CC(F)F)CC1)c1n[nH]c2ccc(-c3cccc(F)c3F)cc12 [Compound 1161]
A: 6.87

----------
This listing pairs compounds with measured pEC50.
TEST_TARGET: UniProt:Q13627
TEST_DESCRIPTION: DYRK1A activity Tau assay: pSer396 Tau in SH-SY5Y cells by ELISA / western blot
APPLIED_CONDITIONS: overnight (16-18 h) exposure
Entry type: numeric. Quantity: pEC50, the -log10 of concentration in molar units.

CHEMICAL_STRUCTURE | pEC50
O=C(NC1CCN(CCF)CC1)c1n[nH]c2ccc(-c3cncc4ccccc34)cc12 | 7.52
CC(C)(F)CN1CCC(NC(=O)c2n[nH]c3ccc(-c4cccnc4F)cc23)CC1 | 7.38
O=C(Nc1ncccc1C(F)(F)F)c1n[nH]c2ccc(-c3cncc(CN4CCCCC4)c3)cc12 | 7.89
CN1CCC(NC(=O)c2n[nH]c3ccc(-c4cccc(F)c4)cc23)CC1 | 6.49
CC(C)CN1CCC(NC(=O)c2n[nH]c3cc(F)c(-c4cccnc4)cc23)CC1 | 7.77

Q: Find pEC50 (UniProt:Q13627) for the entry `O=C(NC1CCN(CC(F)(F)F)CC1)c1n[nH]c2ccc(-c3cccnc3)cc12`
A: 8.10

Q: Please tell me: pEC50 of `CN1CCC2(CC1)CC(NC(=O)c1n[nH]c3ccc(-c4cncc(Cl)c4)cc13)C2` , system UniProt:Q13627?
A: 8.15

Q: API: value(readout=pEC50, system=UniProt:Q13627) for record `COc1cc(NC(=O)c2n[nH]c3ccc(-c4cncc(CN5CCCCC5)c4)cc23)ccn1`
A: 8.70

Q: Form: Entry = `O=C(NC1CCC(F)(F)CC1)c1n[nH]c2ccc(-c3cccnc3)cc12` | System = UniProt:Q13627 | pEC50 = ____
A: 8.70

Q: Lab note: need pEC50 with UniProt:Q13627 for entry `O=C(NC1CC1)c1n[nH]c2ccc(-c3cncc(N4CCCC4)c3)cc12` , please look it up.
A: 8.00

Q: Reported pEC50 for UniProt:Q13627, given `CCN1CCC(NC(=O)c2n[nH]c3ccc(-c4cccc(OC)c4F)cc23)CC1` ?
A: 5.74

Q: Tell me reported pEC50 for `CN(C)Cc1cncc(-c2ccc3[nH]nc(C(=O)NC(C)(C)C)c3c2)c1` , tested with UniProt:Q13627.
A: 6.31

Q: Provide the documented pEC50 with UniProt:Q13627 as the system for `O=C(Nc1cccnc1)c1n[nH]c2ccc(-c3cccc(F)c3F)cc12`
A: 6.87

Q: What reported pEC50 corresponds to `CCN1CCC(NC(=O)c2n[nH]c3ccc(-c4cncc(Cl)c4)cc23)CC1` on UniProt:Q13627?
A: 7.41

Q: Which pEC50 is reported with UniProt:Q13627 for this entry: `O=C(Nc1ccc(F)cc1)c1n[nH]c2ccc(-c3cncc(F)c3)cc12` ?
A: 7.44

Q: Param readout= pEC50; system= UniProt:Q13627; entry= `CC(C)(F)CN1CCC(NC(=O)c2n[nH]c3ccc(-c4cnccn4)cc23)CC1` ; returns value.
A: 7.01

Q: Lookup: pEC50 / UniProt:Q13627 / `O=C(Nc1ccc(CN2CCCC2)cc1)c1n[nH]c2ccc(-c3cccc(F)c3F)cc12`
A: 7.51

Q: Any idea what pEC50 came out for `O=C(NC1Cc2ccccc2C1)c1n[nH]c2ccc(-c3cncc(CN4CCCC4)c3)cc12` on UniProt:Q13627?
A: 7.55

Q: Look up pEC50 with UniProt:Q13627 for this compound: `CCC(CC)NC(=O)c1n[nH]c2ccc(-c3cncc(N4CCCC4)c3)cc12`
A: 6.70

Q: # returns recorded pEC50 (system: UniProt:Q13627) for `C#CCN1CCC(NC(=O)c2n[nH]c3ccc(-c4cccc(F)c4F)cc23)CC1`
A: 7.46

Q: Any idea what pEC50 came out for `O=C(NC1CC1)c1n[nH]c2ccc(-c3cncnc3)cc12` on UniProt:Q13627?
A: 7.12
